assayedSystem: T1, CTNI quality control recombinant protein (PK2-CTNI-1, 170120, produced by the applicant) (human, UniProt P19429 2-210, limits assumed)
T1 construct: also called cardiac troponin I
T1 sequence (P19429 2-210 limits assumed): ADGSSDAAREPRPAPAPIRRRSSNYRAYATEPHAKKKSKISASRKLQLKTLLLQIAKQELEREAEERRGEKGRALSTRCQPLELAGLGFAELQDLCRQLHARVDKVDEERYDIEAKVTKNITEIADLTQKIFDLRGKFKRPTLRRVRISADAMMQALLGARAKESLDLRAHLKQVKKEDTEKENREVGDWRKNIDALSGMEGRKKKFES
assayName: AMC sensor kinetics, antibody captured, cTnI analyte
measurementKind: kon (M⁻¹ s⁻¹)
// return numeric value only (unit: M⁻¹ s⁻¹, not printed)

Input Mutation 1-39 (antibody, V domains shown, built as for Mutation 1) VH: EVQLQQSGAELVKPGASVKLSCTASGFNLKDYFMHWMKQRTEQGLDWIGRIDPEDGETRYAPEFQGKATITADTSSNTAYLQLSTLTSEDTAVYYCARYYSSYVPFVYWGQGTLVTASA VL: DVVMTQTPLSLSVSLGDQASISCRSSQSLIYSNRHTYLHWYLQKPGQSPKLLIFQVSNRFSGVPDRFSGSGSGTDFTLKINRVEAEDLGVYFCSQSTHLPYTFGSGTKLEIKR . Output kon: 620000

Note to self: kon recorded for Mutation 1-22 (antibody, V domains shown, built as for Mutation 1) VH: EVQLQQSGAELVKPGASVKLSCTASGFNIKDYFMHWMKQRTEQGLDWIGRIDPEDGETRYAPEFQGKATITADTSSNTAYLQLSTLTSEDTAVYYCARYYSSYVPFVYWGQGTLVTASA VL: DVVMTQTPLSLSVSLGDQASISCRSSQSIIYSNRHTYLHWYLQKPGQSPKLLIFQVSNRFSGVPDRFSGSGSGTDFTLKINRVEAEDLGVYFCSQSTHLPYTFGSGTKLEIKR was 297000

// kon lookup, binder = Mutation 1-8 (antibody, V domains shown, built as for Mutation 1) VH: EVQLQQSGAELVKPGASVKLSCTASGFNLKDYFMHWMKQRTEQGLDWIGRIDPEDGETRYAPEFQGKATITADTSSNTAYLQLSTLTSEDTAVYYCARYYSSYLPFVYWGQGTLVTASA VL: DVVMTQTPLSLSVSLGDQASISCRSSQSLIYSNRHTYLHWYLQKPGQSPKLLIFQLSNRFSGVPDRFSGSGSGTDFTLKINRVEAEDLGVYFCSQSTHLPFTFGSGTKLEIKR , result: 85100

Briefly, kon measured for Mutation 1-48 (antibody, V domains shown, built as for Mutation 1) VH: EVQLQQSGAELVKPGASVKLSCTASGFNIKDYFMHWMKQRTEQGLDWIGRIDPEDGETRYAPEFQGKATITADTSSNTAYLQLSTLTSEDTAVYYCARYYSSYIPFVYWGQGTLVTASA VL: DVVMTQTPLSLSVSLGDQASISCRSSQSIIYSNRHTYLHWYLQKPGQSPKLLIFQISNRFSGVPDRFSGSGSGTDFTLKINRVEAEDLGVYFCSQSTHLPYTFGSGTKLEIKR : 680000

// sample Mutation 1-31 (antibody, V domains shown, built as for Mutation 1) VH: EVQLQQSGAELVKPGASVKLSCTASGFNIKDYYMHWMKQRTEQGLDWIGRIDPEDAETKYAPEFQGKATITADTSSNTAYLQLSTLTSEDTAVYYCARYYSSYVPFVYWGQGTLVTASA VL: DVVMTQTPLSLSVSLGDQASISCRSSQSILYSNRHTYLHWYLQKPGQSPKLLIFQVSNRFSGVPDRFSGSGSGTDFTLKINRVEAEDLGVYFCSQSTHIPYTFGSGTKLEIKR , its kon was 378000

All figures here come from patent US20210340231A1.
